SYSTEM_NAME: NaV1.1 (Homo sapiens (Human), UniProt P35498)
ASSAY_METHOD_TEXT: Electrophysiological Assay (EP), patch voltage clamp, NaV1.1;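 note: sodium current block measured at ambient temperature, holding at fully inactivating potential, 20 ms repolarization to −150 mV before test pulse, versus 0.5% DMSO control currents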
Assay type: cell-based
TEST_CONTEXT: HEK-293 cells, whole-cell patch clamp
pIC50: −log10 of the molar value.
ENDPOINT_LABEL: pIC50

Check out these entries, answers already filled in.
compound=CC[C@H](Nc1cc(F)c(S(=O)(=O)Nc2cscn2)cc1Cl)c1ccccc1 system_name="NaV1.1 (Homo sapiens (Human), UniProt P35498)" endpoint_label=pIC50 assay_value=5.00
compound=CC[C@H](Nc1cc(F)c(S(=O)(=O)Nc2nccs2)cc1Cl)c1ccccc1C system_name="NaV1.1 (Homo sapiens (Human), UniProt P35498)" endpoint_label=pIC50 assay_value=5.99
compound=C[C@H](Oc1cc(F)c(S(=O)(=O)Nc2cscn2)cc1Cl)c1ccccc1Cl system_name="NaV1.1 (Homo sapiens (Human), UniProt P35498)" endpoint_label=pIC50 assay_value=5.00

[A] C[C@H](Nc1cc(F)c(S(=O)(=O)Nc2cccc(F)n2)cc1Cl)c1ccccc1F
[B] CC[C@H](Nc1cc(F)c(S(=O)(=O)Nc2ncc(F)s2)cc1Cl)c1ccccc1
IN: pIC50 comparison. Which is larger, A or B ? In your reply, give the label of the chosen option.
OUT: B
(B: 7.30, A: 5.05)

* * *

SYSTEM_NAME: NaV1.6 (Homo sapiens (Human), UniProt Q9UQD0)
Sequence (Q9UQD0 whole entry, looked up): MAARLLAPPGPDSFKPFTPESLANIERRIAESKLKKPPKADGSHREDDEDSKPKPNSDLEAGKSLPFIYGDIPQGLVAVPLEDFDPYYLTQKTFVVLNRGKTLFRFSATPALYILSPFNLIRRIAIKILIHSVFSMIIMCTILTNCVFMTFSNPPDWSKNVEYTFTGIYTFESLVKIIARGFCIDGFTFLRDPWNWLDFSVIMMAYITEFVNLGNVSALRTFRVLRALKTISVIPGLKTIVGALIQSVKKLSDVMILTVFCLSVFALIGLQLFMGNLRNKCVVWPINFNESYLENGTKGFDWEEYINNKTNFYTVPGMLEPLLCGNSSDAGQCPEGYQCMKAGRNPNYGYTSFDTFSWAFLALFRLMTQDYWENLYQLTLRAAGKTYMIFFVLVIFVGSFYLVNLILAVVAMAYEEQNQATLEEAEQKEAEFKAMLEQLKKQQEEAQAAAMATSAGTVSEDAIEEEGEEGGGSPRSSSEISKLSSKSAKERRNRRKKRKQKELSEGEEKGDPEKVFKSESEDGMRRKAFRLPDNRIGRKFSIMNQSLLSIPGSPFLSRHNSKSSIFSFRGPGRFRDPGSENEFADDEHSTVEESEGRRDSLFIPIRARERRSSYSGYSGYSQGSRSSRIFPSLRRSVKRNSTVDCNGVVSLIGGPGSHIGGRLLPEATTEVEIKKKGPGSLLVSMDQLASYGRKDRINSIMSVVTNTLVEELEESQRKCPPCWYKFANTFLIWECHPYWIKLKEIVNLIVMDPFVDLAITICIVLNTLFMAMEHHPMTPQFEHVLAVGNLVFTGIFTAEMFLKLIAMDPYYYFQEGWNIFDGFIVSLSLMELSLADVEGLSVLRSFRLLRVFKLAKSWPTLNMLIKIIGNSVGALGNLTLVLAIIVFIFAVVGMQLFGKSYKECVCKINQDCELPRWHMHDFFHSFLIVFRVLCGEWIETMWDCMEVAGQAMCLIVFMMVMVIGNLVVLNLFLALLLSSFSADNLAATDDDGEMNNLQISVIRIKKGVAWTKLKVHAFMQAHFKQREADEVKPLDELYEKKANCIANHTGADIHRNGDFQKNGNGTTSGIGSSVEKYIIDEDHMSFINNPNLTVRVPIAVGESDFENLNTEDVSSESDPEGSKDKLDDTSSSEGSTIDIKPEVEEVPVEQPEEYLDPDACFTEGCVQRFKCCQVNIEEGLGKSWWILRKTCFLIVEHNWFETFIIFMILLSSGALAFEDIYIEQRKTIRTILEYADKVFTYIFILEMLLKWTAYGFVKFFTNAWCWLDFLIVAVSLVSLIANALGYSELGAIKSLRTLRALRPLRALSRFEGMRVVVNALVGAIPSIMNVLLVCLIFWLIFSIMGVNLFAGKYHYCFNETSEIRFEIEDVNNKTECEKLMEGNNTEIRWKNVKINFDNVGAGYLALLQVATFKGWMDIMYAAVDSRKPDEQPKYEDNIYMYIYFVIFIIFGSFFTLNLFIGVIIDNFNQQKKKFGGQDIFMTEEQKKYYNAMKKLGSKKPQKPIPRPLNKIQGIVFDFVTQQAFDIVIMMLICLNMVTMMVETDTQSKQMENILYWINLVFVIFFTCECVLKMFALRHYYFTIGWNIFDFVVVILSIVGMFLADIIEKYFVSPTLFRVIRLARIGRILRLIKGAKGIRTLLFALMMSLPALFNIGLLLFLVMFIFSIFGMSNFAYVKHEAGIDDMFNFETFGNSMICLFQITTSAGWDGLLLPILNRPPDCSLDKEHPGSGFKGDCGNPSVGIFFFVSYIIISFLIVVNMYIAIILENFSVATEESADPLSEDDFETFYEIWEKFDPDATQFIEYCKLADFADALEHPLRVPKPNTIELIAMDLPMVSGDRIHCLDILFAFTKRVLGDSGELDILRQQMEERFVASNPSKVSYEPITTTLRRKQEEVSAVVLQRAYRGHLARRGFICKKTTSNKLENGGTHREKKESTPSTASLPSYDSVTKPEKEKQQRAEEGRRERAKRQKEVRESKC
Sequence (Q07699 whole entry partner, looked up): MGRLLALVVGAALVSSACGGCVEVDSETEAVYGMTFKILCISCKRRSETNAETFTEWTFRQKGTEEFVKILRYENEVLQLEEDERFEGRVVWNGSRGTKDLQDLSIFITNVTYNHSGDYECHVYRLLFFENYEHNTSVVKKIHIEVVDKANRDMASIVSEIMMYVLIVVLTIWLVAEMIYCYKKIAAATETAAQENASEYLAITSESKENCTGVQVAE
ASSAY_METHOD_TEXT: Sodium Influx Assay (Flux), NaV1.6;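 note: Tetracycline-induced cells, compounds applied for one hour at room temperature with modulators holding channels open, IC50 from percent inhibition of sodium influx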
Assay type: cell-based
TEST_CONTEXT: Trex HEK293 cells, ANG2 dye, inactivated state
pIC50: −log10 of the molar value. Structures can show the parent of a compound that is named as a salt.
ENDPOINT_LABEL: pIC50

compound="CC1(C)CCN1Cc1c(F)cccc1CNc1cc(F)c(S(=O)(=O)Nc2cscn2)c(F)c1 [Example 198, formate]" system_name="NaV1.6 (Homo sapiens (Human), UniProt Q9UQD0)" assay_value=6.41

[1] O=S(=O)(Nc1cscn1)c1cc(Cl)c(NCc2cc(F)c(F)cc2CN2CCC2)cc1F [Example 193, formate]
[2] CC[C@H](Nc1cc(F)c(S(=O)(=O)Nc2cccc(F)n2)cc1Cl)c1ccccc1F
[3] C[C@H](Oc1cc(F)c(S(=O)(=O)Nc2cscn2)cc1Cl)c1cc(Cl)ccc1F
[4] O=S(=O)(Nc1nccs1)c1cc(Cl)c(NC2(c3ccccc3)CC2)cc1F
IN: Ascending sort, pIC50. Sort and list the labels as requested.
OUT: 1, 3, 2, 4

* * *

SYSTEM_NAME: UniProt Q14524
Sequence (Q14524 other isoform, or with tags, fused parts or gaps): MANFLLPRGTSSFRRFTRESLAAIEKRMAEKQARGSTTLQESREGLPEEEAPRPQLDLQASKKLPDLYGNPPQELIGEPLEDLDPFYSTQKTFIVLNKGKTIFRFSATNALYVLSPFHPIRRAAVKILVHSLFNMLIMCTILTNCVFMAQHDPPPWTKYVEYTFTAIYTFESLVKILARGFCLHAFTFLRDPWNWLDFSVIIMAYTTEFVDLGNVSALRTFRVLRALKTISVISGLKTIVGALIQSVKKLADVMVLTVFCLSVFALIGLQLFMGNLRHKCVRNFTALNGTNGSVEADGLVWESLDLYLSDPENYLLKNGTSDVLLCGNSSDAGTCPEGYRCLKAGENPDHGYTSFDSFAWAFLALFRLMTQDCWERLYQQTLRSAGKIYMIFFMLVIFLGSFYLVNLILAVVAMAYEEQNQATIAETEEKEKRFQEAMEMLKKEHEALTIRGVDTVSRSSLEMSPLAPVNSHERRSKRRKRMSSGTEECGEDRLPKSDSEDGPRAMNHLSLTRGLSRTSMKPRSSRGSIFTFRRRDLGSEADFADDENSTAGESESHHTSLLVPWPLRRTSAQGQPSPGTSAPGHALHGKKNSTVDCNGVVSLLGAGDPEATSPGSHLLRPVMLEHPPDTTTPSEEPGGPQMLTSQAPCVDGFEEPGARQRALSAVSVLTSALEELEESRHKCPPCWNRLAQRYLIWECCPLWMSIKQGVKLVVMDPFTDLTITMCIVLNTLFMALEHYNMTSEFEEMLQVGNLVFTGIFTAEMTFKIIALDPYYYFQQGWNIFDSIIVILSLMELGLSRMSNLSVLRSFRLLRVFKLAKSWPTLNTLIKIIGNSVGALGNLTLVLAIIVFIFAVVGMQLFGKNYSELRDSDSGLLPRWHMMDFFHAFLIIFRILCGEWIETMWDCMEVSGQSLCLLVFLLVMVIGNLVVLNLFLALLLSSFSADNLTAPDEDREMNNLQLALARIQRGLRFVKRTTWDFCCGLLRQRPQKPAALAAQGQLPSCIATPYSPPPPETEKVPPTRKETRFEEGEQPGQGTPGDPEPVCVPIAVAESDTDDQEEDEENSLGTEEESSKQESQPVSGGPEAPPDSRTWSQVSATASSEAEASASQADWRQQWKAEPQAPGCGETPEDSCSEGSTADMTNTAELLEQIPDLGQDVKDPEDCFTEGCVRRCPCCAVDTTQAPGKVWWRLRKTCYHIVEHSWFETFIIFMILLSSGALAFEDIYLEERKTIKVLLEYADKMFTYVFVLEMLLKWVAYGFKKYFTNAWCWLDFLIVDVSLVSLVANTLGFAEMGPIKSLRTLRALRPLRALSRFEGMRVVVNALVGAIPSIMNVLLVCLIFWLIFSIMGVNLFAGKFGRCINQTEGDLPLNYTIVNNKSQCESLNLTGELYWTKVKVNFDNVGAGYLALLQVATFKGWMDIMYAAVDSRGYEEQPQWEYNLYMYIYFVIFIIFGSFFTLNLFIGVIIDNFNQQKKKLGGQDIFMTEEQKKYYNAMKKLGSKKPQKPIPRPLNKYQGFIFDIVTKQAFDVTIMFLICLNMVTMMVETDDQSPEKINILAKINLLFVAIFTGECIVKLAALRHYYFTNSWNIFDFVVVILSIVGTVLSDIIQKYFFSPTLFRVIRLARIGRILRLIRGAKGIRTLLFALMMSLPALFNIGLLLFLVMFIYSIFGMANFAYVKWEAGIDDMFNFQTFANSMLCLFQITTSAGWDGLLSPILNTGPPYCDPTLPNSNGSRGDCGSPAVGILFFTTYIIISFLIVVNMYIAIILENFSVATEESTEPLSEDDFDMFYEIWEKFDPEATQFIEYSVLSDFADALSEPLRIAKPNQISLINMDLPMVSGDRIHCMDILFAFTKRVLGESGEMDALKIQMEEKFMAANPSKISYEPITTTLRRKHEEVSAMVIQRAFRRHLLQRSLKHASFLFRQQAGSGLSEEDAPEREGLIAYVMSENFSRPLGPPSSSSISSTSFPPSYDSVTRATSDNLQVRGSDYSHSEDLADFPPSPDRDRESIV
ASSAY_METHOD_TEXT: Sodium Influx Assay (Flux), NaV1.5
TEST_CONTEXT: read-out: Flux NaV1.5 IC50; Trex HEK293 cells, ANG2 dye, inactivated state
Listed here are compounds together with their documented IC50.
// units = µM; emit number, no label

Check out these entries, answers already filled in.
chemical_string=C[C@H](Nc1cc(F)c(S(=O)(=O)Nc2nccs2)cc1Cl)C1CCCCC1 system_name="UniProt Q14524" endpoint_label=IC50 assay_value=14.4
chemical_string=O=S(=O)(Nc1nccs1)c1ccc(NC2(c3ccccc3)CCC2)c(Cl)c1 system_name="UniProt Q14524" endpoint_label=IC50 assay_value=6.29
chemical_string=O=S(=O)(Nc1cscn1)c1cc(Cl)c(NCc2ccc(F)cc2CN2CCC2)cc1F system_name="UniProt Q14524" endpoint_label=IC50 assay_value=24.7

IC50 in this record for O=S(=O)(Nc1cccc(F)n1)c1cc(Cl)c(NCc2cccc3ccncc23)cc1F : 30
